# Organism: Rattus norvegicus
# Assay Overview: Negative logarithm of the concentration causing a 100% inhibition of spontaneous mechanical activity in rat portal vein is determined in vitro
# Assay type: functional
Here, each record is paired with measured pEC100 data.
Form field (numeric): enter value without unit.

# Compound, Quantitative Result
rows = [
    ("CC(/N=C(\\NC#N)Nc1ccc(N)nc1)C(C)(C)C (centres undefined)", 6),
]

Measured pEC100 of CC(/N=C(\S)Nc1ccc(O)nc1)C(C)(C)C (centres undefined) : 4

// recorded pEC100 for CC(/N=C(\NC#N)Nc1ccc(N)[n+]([O-])c1)C(C)(C)C (centres undefined) : 5.5

Recorded pEC100 (compound N#CN/C(=N\C1CC2CCC1CC2)Nc1ccc(N)[n+]([O-])c1 (centres undefined) ): 5

# pEC100 of CSc1ccc(N/C(S)=N/C(C)C(C)(C)C)cn1 (centres undefined) = 5

Lab note: measured pEC100 of CC(C)(C)/N=C(\NC#N)Nc1ccc(N)nc1 was 6

Noted for Nc1ccc(N/C(S)=N/[C@H]2CC3C=CC2C3)cn1 (some centres undefined) : its pEC100 reads 7

Record CC1(C)CCCC[C@@H]1/N=C(\S)Nc1ccc(N)nc1 . Reported pEC100: 5.5

According to the records, this compound CC(C)C/N=C(\S)Nc1ccc(N)nc1 displays pEC100 of 4.7

Input CC(/N=C(/NC#N)Nc1cccnc1)C(C)(C)C (centres undefined) . Output pEC100: 7

pEC100 measured on CC(/N=C(\NC#N)Nc1cc[n+]([O-])cc1)C(C)(C)C (centres undefined) = 5

Item: COc1ccc(N/C(S)=N/C(C)C(C)(C)C)cn1 (centres undefined) | pEC100: 5

Consider CC(/N=C(\S)Nc1ccc(Cl)nc1)C(C)(C)C (centres undefined) . Its measured pEC100 is 5.7

compound CC1(C)[C@H]2CC[C@](C)(C2)[C@H]1NC(=S)Nc1ccc(N)nc1 , pEC100 observed: 5.5

GET /value?item= Nc1ccc(NC(=S)NC2C[C@H]3CC[C@@H]2C3)cn1 (single isomer, unassigned; 22e) &field=pEC100 returns 7

The value of pEC100 measured for the compound CC1(C)[C@@H]2CC[C@@]1(C)[C@H](NC(=S)Nc1ccc(N)nc1)C2 turned out to be 6.5

Please fill in: pEC100 reported for Nc1ccc(N/C(S)=N/C23CC4CC(CC(C4)C2)C3)cn1 = 6.5

Value of measured pEC100 for the entry CC(/N=C(\S)Nc1ccc(N)nc1)C(C)(C)C (centres undefined) : 6

So, CC(/N=C(\S)Nc1ccc(C#N)nc1)C(C)(C)C (centres undefined) ? Its pEC100 was 5.7
